These measurements were taken from paper PMC8469531.

measurement_target: Aurora-A kinase (Homo sapiens)
Sequence (O14965 whole entry): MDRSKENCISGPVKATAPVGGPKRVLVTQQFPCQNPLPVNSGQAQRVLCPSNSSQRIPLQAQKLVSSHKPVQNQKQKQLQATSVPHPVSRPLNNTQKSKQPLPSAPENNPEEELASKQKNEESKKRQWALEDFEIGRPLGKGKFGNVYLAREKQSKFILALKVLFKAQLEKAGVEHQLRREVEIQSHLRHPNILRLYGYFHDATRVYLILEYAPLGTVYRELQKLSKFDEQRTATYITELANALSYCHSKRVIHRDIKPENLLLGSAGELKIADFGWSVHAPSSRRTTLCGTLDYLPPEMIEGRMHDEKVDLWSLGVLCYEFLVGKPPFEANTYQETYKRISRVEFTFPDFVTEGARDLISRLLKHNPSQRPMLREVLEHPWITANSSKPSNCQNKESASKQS
protocol_notes: ChEF-based assay (PhosphoSens) of Aurora-A kinase activity
measured_attribute: IC50 (µM)

* Nc1nc(Nc2ccc(S(N)(=O)=O)cc2)nn1S(=O)(=O)c1c(F)cccc1F | 0.21

(a) Nc1nc(Nc2ccc(S(N)(=O)=O)cc2)nn1S(=O)(=O)c1ccccc1
(b) Cc1ccc(S(=O)(=O)n2nc(Nc3ccc(S(N)(=O)=O)cc3)nc2N)cc1
[in] For the pair a and b , which member has the lower IC50 number? Give the label under which the chosen entry appears.
[out] a
